Recorded values, source patent US10556936B2.

# Tested on: HDM-specific T cells expanded from PBMCs of HDM-allergic individuals
# TEST DESCRIPTION: T cell reactivity of peptides: IFN/IL-5 ELISPOT on in vitro expanded HDM-specific T cells
# Format: cell-based, human
# CONDITION NOTES: percentage of donors that produced a response against the peptide, 10 μg/mL
# Method: Each sequence of an “L” cluster was aligned separately using the MEGA software tool with ClustalW. Fifteen-mer peptides overlapping by 10 amino acids were generated and the last 15-mer peptide was added when the sequence length was not divisible by 5, 14,783 unique peptides remained. […]
# % responder per entry
Number in %, nothing else.

Use the examples below as a reference point.
{"SUBSTANCE": "137 (HDNTELMKTKDFLLI; Immunogenic fragment) [compound 137]", "STUDY TARGET": "HDM-specific T cells expanded from PBMCs of HDM-allergic individuals", "VALUE MEASURED": 10}
{"SUBSTANCE": "104 (LHNLYSLSMAMATNA; Immunogenic fragment) [compound 104]", "STUDY TARGET": "HDM-specific T cells expanded from PBMCs of HDM-allergic individuals", "VALUE MEASURED": 10}
{"SUBSTANCE": "122 (FMWGDSMLIAPILYP; Immunogenic fragment) [compound 122]", "STUDY TARGET": "HDM-specific T cells expanded from PBMCs of HDM-allergic individuals", "VALUE MEASURED": 5}
{"SUBSTANCE": "148 (TWWFDEAPMLSSSQY; Immunogenic fragment) [compound 148]", "STUDY TARGET": "HDM-specific T cells expanded from PBMCs of HDM-allergic individuals", "VALUE MEASURED": 10}

Exercise: Param readout= % responder; system= HDM-specific T cells expanded from PBMCs of HDM-allergic individuals; entry= 135 (IIQTKLSIFNDNDKS; Immunogenic fragment) [compound 135] ; returns value.
Key: 5

* * *

# System: HDM-specific T cells expanded from PBMCs of HDM-allergic individuals
# TEST DESCRIPTION: T cell reactivity of peptides: IFN/IL-5 ELISPOT on in vitro expanded HDM-specific T cells
# Type: cell-based, human
# CONDITION NOTES: percentage of donors that produced a response against the peptide, 10 μg/mL
ASSAY ENDPOINT: % responder
Write the figure, then the unit, nothing else.

Use the examples below as a reference point.
{"SUBSTANCE": "150 (ELNSRFVYAKLRGAF; Immunogenic fragment) [compound 150]", "ASSAY ENDPOINT": "% responder", "VALUE MEASURED": "5%"}
{"SUBSTANCE": "145 (PPKPELLVIDTELGR; Immunogenic fragment) [compound 145]", "ASSAY ENDPOINT": "% responder", "VALUE MEASURED": "30%"}
{"SUBSTANCE": "66 (IVQEVHQQFDSFVGQ; Immunogenic fragment) [compound 66]", "ASSAY ENDPOINT": "% responder", "VALUE MEASURED": "5%"}
{"SUBSTANCE": "131 (PRIIRFNYDEQTNIL; Immunogenic fragment) [compound 131]", "ASSAY ENDPOINT": "% responder", "VALUE MEASURED": "25%"}
{"SUBSTANCE": "64 (LYNPLGHRLINHTVR; Immunogenic fragment) [compound 64]", "ASSAY ENDPOINT": "% responder", "VALUE MEASURED": "5%"}
{"SUBSTANCE": "84 (IHQLNDQVLRLKFID; Immunogenic fragment) [compound 84]", "ASSAY ENDPOINT": "% responder", "VALUE MEASURED": "5%"}
{"SUBSTANCE": "54 (FKLVAMKFMMASEDL; Immunogenic fragment) [compound 54]", "ASSAY ENDPOINT": "% responder", "VALUE MEASURED": "5%"}
{"SUBSTANCE": "53 (FEAKGFKLVAMKFMM; Immunogenic fragment) [compound 53]", "ASSAY ENDPOINT": "% responder", "VALUE MEASURED": "5%"}

Kindly review the next substance as well.
Exercise: Param readout= % responder; system= HDM-specific T cells expanded from PBMCs of HDM-allergic individuals; entry= 55 (KFMMASEDLLKKHYA; Immunogenic fragment) [compound 55] ; returns value.
Key: 5%

* * *

# % responder per entry
# System: HDM-specific T cells expanded from PBMCs of HDM-allergic individuals
# TEST DESCRIPTION: T cell reactivity of peptides: IFN/IL-5 ELISPOT on in vitro expanded HDM-specific T cells
# Format: cell-based, human
# CONDITION NOTES: percentage of donors that produced a response against the peptide, 10 μg/mL
Number in %, nothing else.

Use the examples below as a reference point.
{"SUBSTANCE": "97 (NATEYWMDMFAEYHK; Immunogenic fragment) [compound 97]", "STUDY TARGET": "HDM-specific T cells expanded from PBMCs of HDM-allergic individuals", "% responder, %": 25}
{"SUBSTANCE": "87 (QSIFDINLAYMVYSD; Immunogenic fragment) [compound 87]", "STUDY TARGET": "HDM-specific T cells expanded from PBMCs of HDM-allergic individuals", "% responder, %": 20}
{"SUBSTANCE": "67 (LMVHRRLLHDDYFGV; Immunogenic fragment) [compound 67]", "STUDY TARGET": "HDM-specific T cells expanded from PBMCs of HDM-allergic individuals", "% responder, %": 5}
{"SUBSTANCE": "103 (QLHYNLHNLYSLSMA; Immunogenic fragment) [compound 103]", "STUDY TARGET": "HDM-specific T cells expanded from PBMCs of HDM-allergic individuals", "% responder, %": 5}

Kindly review the next substance as well.
Exercise: Given the entry 93 (QVVQQYHNLIGLPAM; Immunogenic fragment) [compound 93] , report its measured % responder.
Key: 10

* * *

# SFC/donor per entry
# Tested on: HDM-specific T cells expanded from PBMCs of HDM-allergic individuals
# TEST DESCRIPTION: T cell reactivity of peptides: IFN/IL-5 ELISPOT on in vitro expanded HDM-specific T cells
# Type: cell-based, human
# CONDITION NOTES: individual peptides 10 μg/mL
Number in SFC/donor, nothing else.

Use the examples below as a reference point.
{"SUBSTANCE": "63 (EFCPYLNISSCPSTE; Immunogenic fragment) [compound 63]", "STUDY TARGET": "HDM-specific T cells expanded from PBMCs of HDM-allergic individuals", "VALUE MEASURED": 7}
{"SUBSTANCE": "YPRKYAFALPKDSQY (Immunogenic fragment) [Peptide 187, fragment of A0023 Der f]", "STUDY TARGET": "HDM-specific T cells expanded from PBMCs of HDM-allergic individuals", "VALUE MEASURED": 25}
{"SUBSTANCE": "147 (LGMQICFDMIFKTPG; Immunogenic fragment) [compound 147]", "STUDY TARGET": "HDM-specific T cells expanded from PBMCs of HDM-allergic individuals", "VALUE MEASURED": 28}
{"SUBSTANCE": "GYAFIMESSSAEHEI (Immunogenic fragment) [Peptide 184, fragment of A0023 Der f]", "STUDY TARGET": "HDM-specific T cells expanded from PBMCs of HDM-allergic individuals", "VALUE MEASURED": 16}
{"SUBSTANCE": "88 (MVYSDQLIHVTSRLP; Immunogenic fragment) [compound 88]", "STUDY TARGET": "HDM-specific T cells expanded from PBMCs of HDM-allergic individuals", "VALUE MEASURED": 3}
{"SUBSTANCE": "90 (TKLASGVFLFNSNAM; Immunogenic fragment) [compound 90]", "STUDY TARGET": "HDM-specific T cells expanded from PBMCs of HDM-allergic individuals", "VALUE MEASURED": 11}
{"SUBSTANCE": "45 (IMRILCCKSRKVAPC; Immunogenic fragment) [compound 45]", "STUDY TARGET": "HDM-specific T cells expanded from PBMCs of HDM-allergic individuals", "VALUE MEASURED": 4}
{"SUBSTANCE": "112 (PSILNFNLFGVPMIG; Immunogenic fragment) [compound 112]", "STUDY TARGET": "HDM-specific T cells expanded from PBMCs of HDM-allergic individuals", "VALUE MEASURED": 4}

Kindly review the next substance as well.
Exercise: Param readout= SFC/donor; system= HDM-specific T cells expanded from PBMCs of HDM-allergic individuals; entry= 82 (YIGYKIEKHSKNLIQ; Immunogenic fragment) [compound 82] ; returns value.
Key: 4

* * *

# Test system: HDM-specific T cells expanded from PBMCs of HDM-allergic individuals
# TEST DESCRIPTION: T cell reactivity of peptides: IFN/IL-5 ELISPOT on in vitro expanded HDM-specific T cells
# Format: cell-based, human
# CONDITION NOTES: individual peptides 10 μg/mL
# Protocol: Each sequence of an “L” cluster was aligned separately using the MEGA software tool with ClustalW. Fifteen-mer peptides overlapping by 10 amino acids were generated and the last 15-mer peptide was added when the sequence length was not divisible by 5, 14,783 unique peptides remained. […]
ASSAY ENDPOINT: SFC/donor (SFC/donor)
Number in SFC/donor, nothing else.

Use the examples below as a reference point.
{"SUBSTANCE": "98 (WMDMFAEYHKTIAFD; Immunogenic fragment) [compound 98]", "ASSAY ENDPOINT": "SFC/donor", "VALUE MEASURED": 8}
{"SUBSTANCE": "114 (YQLGAFYSFARNHND; Immunogenic fragment) [compound 114]", "ASSAY ENDPOINT": "SFC/donor", "VALUE MEASURED": 35}
{"SUBSTANCE": "101 (RHYNDQLHYNLHNLY; Immunogenic fragment) [compound 101]", "ASSAY ENDPOINT": "SFC/donor", "VALUE MEASURED": 10}
{"SUBSTANCE": "105 (SLSMAMATNAALTKL; Immunogenic fragment) [compound 105]", "ASSAY ENDPOINT": "SFC/donor", "VALUE MEASURED": 9}

Kindly review the next substance as well.
Exercise: Given the entry 107 (NEALKTTLNKRPFII; Immunogenic fragment) [compound 107] , report its measured SFC/donor.
Key: 9
